- Tested on: Clostridium sporogenes DSM 1664
- experimental.protocol: fold change of Tryptamine concentration vs plate DMSO controls (fold change (ratio)); higher = more amine produced, active = hit call of the paper (significant change in both replicates, either direction)
- assay.setup: incubation time: 27 h, anaerobic, 37 °C
Structures can show the parent of a compound that is named as a salt.
recorded.metric: fold change of Tryptamine concentration
I'd appreciate a reply containing only the number, no unit.

# annotated cases, reported fold change of Tryptamine concentration shown
compound: O=C(Cn1ccnc1[N+](=O)[O-])NCCO [Etanidazole] (20 µM)
tgt: Clostridium sporogenes DSM 1664
fold change of Tryptamine concentration: 0.98
//
compound: N#C/C(=C1/SCC(c2ccccc2Cl)S1)n1ccnc1 (stereo not drawn) [Lanoconazole] (20 µM)
tgt: Clostridium sporogenes DSM 1664
fold change of Tryptamine concentration: 0.98

Lab note: next compound to report on.
Form field, fold change of Tryptamine concentration with Clostridium sporogenes DSM 1664, item CCC(C)(CN(C)C)OC(=O)c1ccccc1 (stereo not drawn) [Amyleine hydrochloride] (20 µM) : 0.974

###

- Test system: Klebsiella aerogenes DSM 30053
- experimental.protocol: fold change of Cadaverine concentration vs plate DMSO controls (fold change (ratio)); higher = more amine produced, active = hit call of the paper (significant change in both replicates, either direction)
- assay.setup: incubation time: 27 h, anaerobic, 37 °C
Counter-ions that a name gives are not always drawn.
// reported fold change of Cadaverine concentration for each item listed
I'd appreciate a reply containing only the number, no unit.

molecule: CCOC(=O)[C@H](CCc1ccccc1)N[C@@H](C)C(=O)N1CCC[C@H]1C(=O)O [Enalapril maleate] (20 µM)
fold change of Cadaverine concentration: 1.02
--
molecule: COc1cc(NS(=O)(=O)c2ccc(N)cc2)ncn1 [Sulfamonomethoxine] (20 µM)
fold change of Cadaverine concentration: 0.991

What the record says about C=C1C[C@@]23CC[C@H]4[C@@](C)(CCC[C@@]4(C)C(=O)O[C@@H]4O[C@H](CO)[C@@H](O)[C@H](O)[C@H]4O)[C@@H]2CC[C@]1(O[C@@H]1O[C@H](CO)[C@@H](O)[C@H](O)[C@H]1O)C3 [Rubusoside] (50 µM) : fold change of Cadaverine concentration is 0.991

What the record says about CCN1C(=O)NC(c2ccccc2)C1=O (stereo not drawn) [Ethotoin] (20 µM) : fold change of Cadaverine concentration is 0.981

What the record says about Nc1ccn([C@H]2CC[C@@H](CO)O2)c(=O)n1 [Zalcitabine] (20 µM) : fold change of Cadaverine concentration is 0.997

What the record says about NS(=O)(=O)c1cc2c(cc1C(F)(F)F)NCNS2(=O)=O [Hydroflumethiazide] (20 µM) : fold change of Cadaverine concentration is 1.01

What the record says about COc1cc2ncnc(Nc3ccc(F)c(Cl)c3)c2cc1OCCCN1CCOCC1 [Gefitinib] (20 µM) : fold change of Cadaverine concentration is 1.02

What the record says about CCCCN(CCCC)CCC(O)c1cc2c(Cl)cc(Cl)cc2c2cc(C(F)(F)F)ccc12 (stereo not drawn) [Halofantrine hydrochloride] (20 µM) : fold change of Cadaverine concentration is 1.01

What the record says about COc1c(Cl)ccc(Cl)c1C(=O)O (20 µM) : fold change of Cadaverine concentration is 1.01

###

- System: Clostridium sporogenes DSM 1664
- experimental.protocol: growth (OD595) fold change vs plate DMSO controls (fold change (ratio)); higher = more growth
- assay.setup: incubation time: 27 h, anaerobic, 37 °C
Counter-ions that a name gives are not always drawn.
recorded.metric: growth
I'd appreciate a reply containing only the number, no unit.

# annotated cases, reported growth shown
compound: OC[C@H]1O[C@H](O[C@H]2[C@H](O)[C@@H](O)[C@H](O)O[C@@H]2CO)[C@H](O)[C@@H](O)[C@@H]1O [Maltose] (50 µM)
growth: 1
--
compound: Cc1cccc(C)c1OCC(=O)N[C@@H](Cc1ccccc1)[C@@H](O)C[C@H](Cc1ccccc1)NC(=O)[C@H](C(C)C)N1CCCNC1=O [Lopinavir] (20 µM)
growth: 1.12
--
compound: O=C(Oc1cccc2cccnc12)c1ccccc1 [Benzoxiquine] (20 µM)
growth: 1.09
--
compound: N[C@H](Cc1ccccc1)C(=O)O [D-phenylalanine] (20 µM)
growth: 1.13
--
compound: CC(C)NCC(O)c1ccc(O)c(O)c1 (single isomer, unassigned; (-)) [(-) Isoproterenol hydrochloride] (20 µM)
growth: 1.02

Form field, growth with Clostridium sporogenes DSM 1664, item CC1COc2c(N3CCN(C)CC3)c(F)cc3c(=O)c(C(=O)O)cn1c23 (configuration not stated) [Ofloxacin] (20 µM) : 0.0346

Form field, growth with Clostridium sporogenes DSM 1664, item C/C(=C(\CCOP(=O)(O)O)SC(=O)c1ccccc1)N(C=O)Cc1cnc(C)nc1N [Benfotiamine] (20 µM) : 0.989

###

- Tested on: Klebsiella aerogenes DSM 30053
- experimental.protocol: growth (OD595) fold change vs plate DMSO controls (fold change (ratio)); higher = more growth
- assay.setup: incubation time: 27 h, anaerobic, 37 °C
Where a name gives a salt, the structure may show the parent alone.
// reported growth for each item listed

# annotated cases, reported growth shown
compound: CC(=O)N1CCN(c2ccc(OCC3COC(Cn4ccnc4)(c4ccc(Cl)cc4Cl)O3)cc2)CC1 (centres undefined) [Ketoconazole] (20 µM)
growth: 1

compound: COc1cc2nc(N3CCN(C(=O)C4COc5ccccc5O4)CC3)nc(N)c2cc1OC (centres undefined) [Doxazosin mesylate] (20 µM)
growth: 0.995

compound: N[C@@H](Cc1cc(I)c(Oc2cc(I)c(O)c(I)c2)c(I)c1)C(=O)O [(L) Thyroxine] (20 µM)
growth: 1.01

What the record says about NS(=O)(=O)c1cc(C(=O)NN2C[C@@H]3[C@H]4CC[C@H](C4)[C@@H]3C2)ccc1Cl [Tripamide] (20 µM) : growth is 0.978

###

- Tested on: Clostridium sporogenes DSM 1664
- experimental.protocol: growth (OD595) fold change vs plate DMSO controls (fold change (ratio)); higher = more growth
- assay.setup: incubation time: 27 h, anaerobic, 37 °C
Structures can show the parent of a compound that is named as a salt.
Tag: criterion met if measured growth is not below 0.9, criterion not met if it is.

Is the recorded value of growth equal to or greater than 0.9 for this compound? CC(C)(C)NCC(O)COc1cccc2c1CC(O)C(O)C2 (stereo not given) [Nadolol] (20 µM)
criterion met

Is the recorded value of growth equal to or greater than 0.9 for this compound? CC(=O)N[C@H]1[C@H]([C@H](O)[C@H](O)CO)OC(C(=O)O)=C[C@@H]1NC(=N)N [Zanamivir] (20 µM)
criterion met

Is the recorded value of growth equal to or greater than 0.9 for this compound? CC(=O)OCC(=O)[C@@]12OC(C)(C)O[C@@H]1C[C@H]1[C@@H]3C[C@H](F)C4=CC(=O)C=C[C@]4(C)[C@@]3(F)[C@@H](O)C[C@@]12C [Fluocinonide] (20 µM)
criterion not met

Is the recorded value of growth equal to or greater than 0.9 for this compound? N=C(N=C(N)N)N1CCOCC1 [Moroxidine hydrochloride] (20 µM)
criterion met

Is the recorded value of growth equal to or greater than 0.9 for this compound? O=C(O)c1ccccc1Nc1cccc(C(F)(F)F)c1 [Flufenamic acid] (20 µM)
criterion met

###

// reported growth for each item listed
- System: Escherichia coli IAI1
- experimental.protocol: growth (OD595) fold change vs plate DMSO controls (fold change (ratio)); higher = more growth
- assay.setup: incubation time: 27 h, anaerobic, 37 °C
I'd appreciate a reply containing only the number, no unit.

Form field, growth with Escherichia coli IAI1, item CCCC(CCC)C(=O)O [Valproic acid] (20 µM) : 1.01

Form field, growth with Escherichia coli IAI1, item O=C(O)CNC(=O)c1ccccc1 [Hippuric acid] (20 µM) : 1.02

Form field, growth with Escherichia coli IAI1, item COC1=C(OC)C(=O)C(CCCCCCCCCCO)=C(C)C1=O [Idebenone] (20 µM) : 1

Form field, growth with Escherichia coli IAI1, item Cc1oncc1C(=O)Nc1ccc(C(F)(F)F)cc1 [Leflunomide] (20 µM) : 0.978

Form field, growth with Escherichia coli IAI1, item Cc1nc(=O)c2cc(CN(C)c3ccc(C(=O)N[C@@H](CCC(=O)O)C(=O)O)s3)ccc2[nH]1 [Raltitrexed] (20 µM) : 1

###

- Tested on: Klebsiella aerogenes DSM 30053
- experimental.protocol: fold change of Cadaverine concentration vs plate DMSO controls (fold change (ratio)); higher = more amine produced, active = hit call of the paper (significant change in both replicates, either direction)
- assay.setup: incubation time: 27 h, anaerobic, 37 °C
Where a name gives a salt, the structure may show the parent alone.
recorded.metric: fold change of Cadaverine concentration
I'd appreciate a reply containing only the number, no unit.

compound: CC(=O)N[C@@H](CS)C(=O)O [Acetylcysteine] (20 µM)
tgt: Klebsiella aerogenes DSM 30053
value.reported: 0.987

Form field, fold change of Cadaverine concentration with Klebsiella aerogenes DSM 30053, item O=c1oc2cc(O)ccc2s1 [Tioxolone] (20 µM) : 0.987

Form field, fold change of Cadaverine concentration with Klebsiella aerogenes DSM 30053, item O=C(Cn1c(=O)sc2ccc(Cl)cc21)N1CCN(CCO)CC1 [Tiaramide Hydrochloride] (20 µM) : 0.991

Form field, fold change of Cadaverine concentration with Klebsiella aerogenes DSM 30053, item O=C(O)Cc1cc(I)c(Oc2ccc(O)c(I)c2)c(I)c1 [Tiratricol] (20 µM) : 1.01

Form field, fold change of Cadaverine concentration with Klebsiella aerogenes DSM 30053, item CCC[C@@H]1C[C@@H](C(=O)N[C@@H]([C@H]2O[C@H](SC)[C@H](OP(=O)(O)O)[C@@H](O)[C@H]2O)[C@H](C)Cl)N(C)C1 [Clindamycin Phosphate] (20 µM) : 0.999

Form field, fold change of Cadaverine concentration with Klebsiella aerogenes DSM 30053, item C[C@]12CCC(=O)C=C1CC[C@@H]1[C@@H]2[C@@H](O)C[C@@]2(C)[C@H]1CC[C@]2(O)C(=O)CO [Hydrocortisone] (20 µM) : 1

Form field, fold change of Cadaverine concentration with Klebsiella aerogenes DSM 30053, item O=c1[nH]c(=O)n([C@H]2C[C@H](O)[C@@H](CO)O2)cc1F [Floxuridine] (20 µM) : 1.02

Form field, fold change of Cadaverine concentration with Klebsiella aerogenes DSM 30053, item CCC(=O)OCC(=O)[C@@]1(OC(=O)CC)[C@H](C)C[C@H]2[C@H]3[C@H]([C@@H](O)C[C@@]21C)[C@@]1(C)C=CC(=O)C=C1C[C@H]3Cl [Alclometasone dipropionate] (20 µM) : 0.997

Form field, fold change of Cadaverine concentration with Klebsiella aerogenes DSM 30053, item CCC(C)(CN(C)C)OC(=O)c1ccccc1 (stereo not given) [Amyleine hydrochloride] (20 µM) : 0.983

Form field, fold change of Cadaverine concentration with Klebsiella aerogenes DSM 30053, item Cc1cc(NS(=O)(=O)c2ccc(N)cc2)no1 [Sulfamethoxazole] (20 µM) : 1
